B1: LINE1-mini (parent)
chain: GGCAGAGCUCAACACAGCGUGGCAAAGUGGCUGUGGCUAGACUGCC

Variants of: B1
protocol-details: self-cleavage, relative activity (ratio to wild type); higher = more cleavage; in vitro, sequencing; the parent is a self-cleaving ribozyme
Each record gets a class by self-cleavage: lower bin = under 0.07, middle bin = from 0.07 up to 0.2, upper bin = 0.2 and over

> print(dat)
    alteration  assigned.category
 1   C13G A24G          upper bin
 2   C37G U38G          lower bin
 3    G1C G35U          lower bin
 4   A11G U20A          lower bin
 5   A26G U34G          lower bin
 6   A25U U34G         middle bin
 7    C8A G29U          upper bin
 8   C13A U20G         middle bin
 9    G2U C18A          lower bin
10    A6U G36U         middle bin
11   G27A G40C         middle bin
12   A26U U38A          upper bin
13   G30C U38C          upper bin
14   A16G G17C          upper bin
15    G5U G19U         middle bin
16   C18G G40U          lower bin
17    A6G U28A          lower bin
18   A11C A41C          lower bin
19   G21A G44U          upper bin
20   A41U G44U         middle bin
21   C13A G22C          lower bin
22   A24G C46G          upper bin
23    C3U A26U          upper bin
24   G17U A39G          lower bin
25    G7U C13G         middle bin
26   A12U A41G         middle bin
27   G29A A41G          upper bin
28    G2C G21C          upper bin
29    A6C A14C         middle bin
30   G33A C37A         middle bin
31    G5C A26U          lower bin
32    G7A C10A          lower bin
33        C37A         middle bin
34    G7U C31A         middle bin
35   G17U G19A          upper bin
36   G19C U20A          upper bin
37   G35A G40C         middle bin
38    C8G C45A         middle bin
39    G1A G40U         middle bin
40   A14U C18G         middle bin
41    G7C A14G         middle bin
42   A14G U32C         middle bin
43   G36U C46G         middle bin
44   A11G C13A          lower bin
45    G2C A41U         middle bin
46    G7C C18U         middle bin
47   G21C C42U          upper bin
48    A6G C18G         middle bin
49    U9G U43C          lower bin
50   A11G C42A          lower bin
51   G21C G27A          upper bin
52   C18A G29C          upper bin
53    G7U A11U          lower bin
54        A16G          upper bin
55    C8U A26U          upper bin
56   G27C G44U          upper bin
57   U20C G33A         middle bin
58   U43G C46U          upper bin
59   U28A G36A         middle bin
60   U34G U38A          upper bin
61   A14G G29U          upper bin
62     A6G C8A         middle bin
63   C13A G33A         middle bin
64   U32G G33C         middle bin
65   G22U C45G          upper bin
66    U9G G27U          lower bin
67   G33U G36U          lower bin
68   G21A C31G         middle bin
69   G22C G36U         middle bin
70   G27A C46U          upper bin
71    A4U C46A         middle bin
72   A12U C37U          lower bin
73    C3U G35C         middle bin
74   U43G C45U         middle bin
75   G36C C42A          lower bin
76   C31G C45G          lower bin
77   G17A C45G          lower bin
78   C18U A41U          upper bin
79   C10U C13A          lower bin
80   G19A A24C          upper bin
81   G17A G33A          lower bin
82   C15U U38C          upper bin
83   C23U G33C          lower bin
